# MEASURED TARGET: hNav1.2 (Homo sapiens (Human))
# Sequence (Q99250 whole entry): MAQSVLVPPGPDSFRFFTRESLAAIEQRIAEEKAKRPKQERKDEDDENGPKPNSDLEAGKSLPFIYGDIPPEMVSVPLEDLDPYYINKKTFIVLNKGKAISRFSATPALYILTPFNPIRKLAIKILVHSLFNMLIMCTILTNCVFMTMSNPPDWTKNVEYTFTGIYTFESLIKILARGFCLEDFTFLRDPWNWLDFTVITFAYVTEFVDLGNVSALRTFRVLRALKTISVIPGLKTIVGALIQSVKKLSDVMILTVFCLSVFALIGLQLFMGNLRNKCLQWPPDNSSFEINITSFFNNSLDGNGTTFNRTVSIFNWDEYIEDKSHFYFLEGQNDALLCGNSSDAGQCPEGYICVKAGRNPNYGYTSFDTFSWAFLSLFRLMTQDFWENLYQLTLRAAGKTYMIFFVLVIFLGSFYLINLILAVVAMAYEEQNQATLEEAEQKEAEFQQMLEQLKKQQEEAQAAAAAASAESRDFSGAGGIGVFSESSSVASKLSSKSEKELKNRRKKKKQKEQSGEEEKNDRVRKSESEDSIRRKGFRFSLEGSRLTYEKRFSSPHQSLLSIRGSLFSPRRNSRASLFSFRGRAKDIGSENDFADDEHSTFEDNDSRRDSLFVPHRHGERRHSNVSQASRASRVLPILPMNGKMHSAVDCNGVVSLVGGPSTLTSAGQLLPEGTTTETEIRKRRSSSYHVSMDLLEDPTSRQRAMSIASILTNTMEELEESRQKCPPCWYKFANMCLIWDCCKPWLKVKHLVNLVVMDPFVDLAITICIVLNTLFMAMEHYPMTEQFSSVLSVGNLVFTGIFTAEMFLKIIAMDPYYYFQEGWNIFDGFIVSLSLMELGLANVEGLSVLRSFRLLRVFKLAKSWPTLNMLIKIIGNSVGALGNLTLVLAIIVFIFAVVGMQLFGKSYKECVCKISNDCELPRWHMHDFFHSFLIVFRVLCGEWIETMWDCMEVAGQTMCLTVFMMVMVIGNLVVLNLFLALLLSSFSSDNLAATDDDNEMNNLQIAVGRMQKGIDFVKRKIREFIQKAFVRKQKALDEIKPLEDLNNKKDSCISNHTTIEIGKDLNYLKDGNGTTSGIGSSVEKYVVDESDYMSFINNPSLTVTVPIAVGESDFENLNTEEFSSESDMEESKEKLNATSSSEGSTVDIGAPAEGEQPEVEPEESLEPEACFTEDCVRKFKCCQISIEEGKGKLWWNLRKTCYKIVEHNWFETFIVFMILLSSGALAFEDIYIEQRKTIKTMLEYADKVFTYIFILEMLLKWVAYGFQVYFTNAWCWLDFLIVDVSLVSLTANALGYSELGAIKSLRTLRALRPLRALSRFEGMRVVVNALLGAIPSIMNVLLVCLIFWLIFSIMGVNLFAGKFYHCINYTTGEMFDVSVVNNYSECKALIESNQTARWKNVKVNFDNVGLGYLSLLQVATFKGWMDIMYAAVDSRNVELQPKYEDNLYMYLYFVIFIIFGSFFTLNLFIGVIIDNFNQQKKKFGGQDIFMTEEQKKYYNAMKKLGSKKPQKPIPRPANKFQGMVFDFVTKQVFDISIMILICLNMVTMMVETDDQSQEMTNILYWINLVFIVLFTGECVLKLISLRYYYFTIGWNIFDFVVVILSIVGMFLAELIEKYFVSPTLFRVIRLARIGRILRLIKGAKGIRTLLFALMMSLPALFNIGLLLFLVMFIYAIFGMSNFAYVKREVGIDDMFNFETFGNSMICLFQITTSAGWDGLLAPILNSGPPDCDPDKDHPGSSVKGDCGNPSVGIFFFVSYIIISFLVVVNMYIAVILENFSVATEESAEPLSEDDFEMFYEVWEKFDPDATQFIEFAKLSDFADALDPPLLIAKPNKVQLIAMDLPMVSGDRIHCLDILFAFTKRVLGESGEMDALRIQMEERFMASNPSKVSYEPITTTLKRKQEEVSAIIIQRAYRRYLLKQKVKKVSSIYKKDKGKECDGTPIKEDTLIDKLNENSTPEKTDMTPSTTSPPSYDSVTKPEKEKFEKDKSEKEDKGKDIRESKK
# ASSAY: Automated patch clamp (IonWorks Quattro) block of hNav1.2 channels in CHO cells
# Assay type: cell-based
# EXPERIMENTAL PARAMETERS: Inactivated state block (TP12), read-out: IC50 Nav1.2 Inactivated state block
READOUT TYPE: pIC50
Answer as the number alone; pIC50 is minus log10 of concentration in mol/L.

Completed entries (count: 2):
[
  {
    "STRUCTURE SMILES": "Cc1cccc(C)c1OCCCNCc1ccc(C(F)(F)F)cc1",
    "MEASURED TARGET": "hNav1.2 (Homo sapiens (Human))",
    "NUMBER": 5.46
  },
  {
    "STRUCTURE SMILES": "Cc1cccc(C)c1OCCCNCc1ccc(C#N)cc1",
    "MEASURED TARGET": "hNav1.2 (Homo sapiens (Human))",
    "NUMBER": 5.68
  }
]

Sure, the documented pIC50 for Cc1cccc(C)c1OCCCNCc1ccccc1 is 6.30

###

# MEASURED TARGET: UniProt Q9UQD0
# ASSAY: Automated patch clamp (IonWorks Quattro) block of hNav1.6 channels in CHO cells
# Type: cell-based
# EXPERIMENTAL PARAMETERS: Inactivated state block (TP12), read-out: IC50 Nav1.6 Inactivated state block
Measured pIC50 by item
Answer as the number alone; pIC50 is minus log10 of concentration in mol/L.

[
  {
    "STRUCTURE SMILES": "Cc1cccc(C)c1OCCCNCc1nn(Cc2ccccc2)c2ccccc12",
    "pIC50": 4.09
  },
  {
    "STRUCTURE SMILES": "Cc1cccc(C)c1OCCCNCc1cccc(F)c1",
    "pIC50": 5.92
  }
]

Sure, the documented pIC50 for CC(=O)Nc1ccc(CNCCCOc2c(C)cccc2C)cc1 is 5.15

Sure, the documented pIC50 for Cc1cccc(C)c1OCCCNCc1c2ccccc2nn1Cc1ccccc1 is 5.43

###

# MEASURED TARGET: hNav1.6 (Homo sapiens (Human))
# Sequence (Q9UQD0 whole entry): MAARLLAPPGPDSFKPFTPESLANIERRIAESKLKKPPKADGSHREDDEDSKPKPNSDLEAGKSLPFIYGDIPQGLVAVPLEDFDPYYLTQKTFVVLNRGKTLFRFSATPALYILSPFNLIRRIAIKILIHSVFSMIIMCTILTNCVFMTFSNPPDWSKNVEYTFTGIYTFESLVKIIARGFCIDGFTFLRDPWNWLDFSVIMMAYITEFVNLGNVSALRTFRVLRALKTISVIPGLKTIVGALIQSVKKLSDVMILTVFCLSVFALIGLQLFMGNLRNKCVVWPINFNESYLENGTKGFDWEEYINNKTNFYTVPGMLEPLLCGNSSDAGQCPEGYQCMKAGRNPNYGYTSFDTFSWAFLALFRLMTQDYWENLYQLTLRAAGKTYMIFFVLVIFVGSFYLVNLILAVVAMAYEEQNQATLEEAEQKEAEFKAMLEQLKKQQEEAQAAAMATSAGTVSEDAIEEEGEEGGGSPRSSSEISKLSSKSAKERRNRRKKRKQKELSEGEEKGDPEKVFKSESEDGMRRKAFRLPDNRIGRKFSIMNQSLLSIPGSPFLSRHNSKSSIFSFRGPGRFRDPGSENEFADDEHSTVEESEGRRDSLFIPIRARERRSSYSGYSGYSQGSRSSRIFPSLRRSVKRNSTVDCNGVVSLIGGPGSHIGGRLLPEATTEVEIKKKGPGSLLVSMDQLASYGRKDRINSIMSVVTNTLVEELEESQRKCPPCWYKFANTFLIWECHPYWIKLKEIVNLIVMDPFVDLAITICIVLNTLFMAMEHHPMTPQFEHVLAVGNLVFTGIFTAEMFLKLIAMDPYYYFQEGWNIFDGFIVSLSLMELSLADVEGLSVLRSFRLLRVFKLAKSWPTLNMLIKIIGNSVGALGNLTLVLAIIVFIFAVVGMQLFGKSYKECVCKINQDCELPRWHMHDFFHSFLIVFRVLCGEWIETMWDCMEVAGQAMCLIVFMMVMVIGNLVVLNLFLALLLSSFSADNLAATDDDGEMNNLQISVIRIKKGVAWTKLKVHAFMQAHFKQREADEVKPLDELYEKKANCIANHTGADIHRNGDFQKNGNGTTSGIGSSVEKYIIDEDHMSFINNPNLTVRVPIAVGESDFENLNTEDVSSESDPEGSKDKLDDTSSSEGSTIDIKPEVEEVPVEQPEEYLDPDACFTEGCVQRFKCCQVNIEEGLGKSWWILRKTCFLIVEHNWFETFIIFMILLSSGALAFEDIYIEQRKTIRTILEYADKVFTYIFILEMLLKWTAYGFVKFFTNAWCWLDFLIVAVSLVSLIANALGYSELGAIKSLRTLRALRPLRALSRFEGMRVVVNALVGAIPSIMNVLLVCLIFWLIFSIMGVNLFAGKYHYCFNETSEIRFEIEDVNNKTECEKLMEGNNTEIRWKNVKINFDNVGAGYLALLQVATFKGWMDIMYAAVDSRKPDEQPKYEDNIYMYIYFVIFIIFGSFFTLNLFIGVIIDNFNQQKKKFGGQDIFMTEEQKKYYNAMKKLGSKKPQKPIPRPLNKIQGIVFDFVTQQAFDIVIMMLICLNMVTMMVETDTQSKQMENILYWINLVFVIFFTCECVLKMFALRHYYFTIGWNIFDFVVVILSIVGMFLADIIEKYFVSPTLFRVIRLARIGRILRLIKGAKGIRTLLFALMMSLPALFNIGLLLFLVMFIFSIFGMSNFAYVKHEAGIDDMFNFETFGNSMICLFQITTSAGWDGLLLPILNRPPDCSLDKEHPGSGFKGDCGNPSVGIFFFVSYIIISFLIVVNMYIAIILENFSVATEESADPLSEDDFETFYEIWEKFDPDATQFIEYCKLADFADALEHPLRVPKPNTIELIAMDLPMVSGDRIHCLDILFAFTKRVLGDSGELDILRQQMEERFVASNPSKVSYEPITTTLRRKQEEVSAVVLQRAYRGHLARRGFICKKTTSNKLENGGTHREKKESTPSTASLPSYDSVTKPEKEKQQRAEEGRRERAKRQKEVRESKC
# ASSAY: Automated patch clamp (IonWorks Quattro) block of hNav1.6 channels in CHO cells
# Type: cell-based
# EXPERIMENTAL PARAMETERS: Inactivated state block (TP12), read-out: IC50 Nav1.6 Inactivated state block
READOUT TYPE: IC50

[
  {
    "COMPOUND": "Cc1cccc(C)c1OCCCNCc1ccc(OC(F)(F)F)cc1",
    "IC50": "40.9 µM"
  }
]

Sure, the documented IC50 for Cc1cccc(C)c1OCCCNC(c1ccccn1)c1ccccn1 is 0.1 µM

Sure, the documented IC50 for Cc1cccc(C)c1OCCCNC(C)c1ccccc1 (stereo not shown) is 0.3 µM

Sure, the documented IC50 for Cc1cccc(C)c1OCCCNCc1ccc(C#N)cc1 is 1.8 µM

Sure, the documented IC50 for Cc1n[nH]c(C)c1OCCCNCc1cccc(-c2cncnc2)c1 is > 10 µM

Sure, the documented IC50 for COc1ccc(CNCCCOc2c(C)cccc2C)cc1 is 1.5 µM

###

# MEASURED TARGET: hNav1.2 (Homo sapiens (Human))
# ASSAY: Automated patch clamp (IonWorks Quattro) block of hNav1.2 channels in CHO cells
# Type: cell-based
# EXPERIMENTAL PARAMETERS: Inactivated state block (TP12), read-out: IC50 Nav1.2 Inactivated state block
Measured pIC50 by item
Answer as the number alone; pIC50 is minus log10 of concentration in mol/L.

Completed entries (count: 4):
[
  {
    "COMPOUND": "Cc1cccc(C)c1OCCCNCc1cccc(-c2ccc(F)cc2)c1 [Compound 557]",
    "READOUT TYPE": "pIC50",
    "NUMBER": 5.49
  },
  {
    "COMPOUND": "Cc1cccc(C)c1OCCCNCc1ccccc1C(F)(F)F [Compound 534]",
    "READOUT TYPE": "pIC50",
    "NUMBER": 5.68
  },
  {
    "COMPOUND": "Cc1cccc(C)c1OCCCNCc1ccc(S(N)(=O)=O)cc1 [Compound 532]",
    "READOUT TYPE": "pIC50",
    "NUMBER": 5.21
  },
  {
    "COMPOUND": "Cc1cccc(C)c1OCCCNCc1ccccc1-c1ccccc1 [Compound 536]",
    "READOUT TYPE": "pIC50",
    "NUMBER": 6.40
  }
]

Sure, the documented pIC50 for Cc1cccc(C)c1OCCCNCc1c2ccccc2nn1Cc1ccccc1 [Compound 555] is 5.03

Sure, the documented pIC50 for Cc1cccc(C)c1OCCCNCc1ccccc1F [Compound 551] is 5.68

###

# MEASURED TARGET: hNav1.2 (Homo sapiens (Human))
# ASSAY: Automated patch clamp (IonWorks Quattro) block of hNav1.2 channels in CHO cells
# Format: cell-based
# EXPERIMENTAL PARAMETERS: Inactivated state block (TP12), read-out: IC50 Nav1.2 Inactivated state block
Measured pIC50 by item
Answer as the number alone; pIC50 is minus log10 of concentration in mol/L.

[
  {
    "MOLECULE": "CC(=O)Nc1ccc(CNCCCOc2c(C)cccc2C)cc1",
    "NUMBER": 5.30
  },
  {
    "MOLECULE": "Cc1cccc(C)c1OCCCNCc1cc(Cl)c(O)c(Cl)c1",
    "NUMBER": 5.36
  },
  {
    "MOLECULE": "Cc1cccc(C)c1OCCCNCc1ccc(OC(F)(F)F)cc1",
    "NUMBER": 5.85
  },
  {
    "MOLECULE": "Cc1cccc(C)c1OCCCNCc1cccnc1",
    "NUMBER": 5.32
  },
  {
    "MOLECULE": "COc1ccc(CNCCCOc2c(C)cccc2C)cc1",
    "NUMBER": 6.00
  },
  {
    "MOLECULE": "COc1ccccc1CNCCCOc1c(C)cccc1C",
    "NUMBER": 5.96
  },
  {
    "MOLECULE": "Cc1cccc(C)c1OCCCNCc1nn(Cc2ccccc2)c2ccccc12",
    "NUMBER": 5.92
  },
  {
    "MOLECULE": "Cc1cccc(C)c1OCCCNCc1cccc(-c2ccccc2)c1",
    "NUMBER": 5.15
  },
  {
    "MOLECULE": "Cc1cccc(C)c1OCCCNCc1cccc(-c2ccccc2F)c1",
    "NUMBER": 5.68
  },
  {
    "MOLECULE": "Cc1cccc(C)c1OCCCNC(c1ccccc1)c1ccccc1",
    "NUMBER": 5.85
  }
]

Kindly review the next molecule as well.
Sure, the documented pIC50 for Cc1cccc(C)c1OCCCNCc1ccc(O)cc1 is 5.66

###

Measured IC50 by item
# MEASURED TARGET: UniProt Q99250
# ASSAY: Automated patch clamp (IonWorks Quattro) block of hNav1.2 channels in CHO cells
# Type: cell-based
# EXPERIMENTAL PARAMETERS: 10 Hz frequency-dependent block (TP11), read-out: IC50 Nav1.2 10 Hz block
// note: answer is a bare numeric in µM

Completed entries (count: 2):
[
  {
    "COMPOUND": "Cc1cccc(C)c1OCCCNCc1ccccc1C(F)(F)F [Compound 534]",
    "READOUT TYPE": "IC50",
    "NUMBER": 7.1
  },
  {
    "COMPOUND": "Cc1cccc(C)c1OCCCNCc1ccccc1F [Compound 551]",
    "READOUT TYPE": "IC50",
    "NUMBER": 4.9
  }
]

Kindly review the next compound as well.
Sure, the documented IC50 for Cc1cccc(C)c1OCCCNCc1ccc(C(F)(F)F)cc1 [Compound 526] is 9.5

###

# MEASURED TARGET: hNav1.6 (Homo sapiens (Human))
# ASSAY: Automated patch clamp (IonWorks Quattro) block of hNav1.6 channels in CHO cells
# Assay type: cell-based
# EXPERIMENTAL PARAMETERS: Inactivated state block (TP12), read-out: IC50 Nav1.6 Inactivated state block
READOUT TYPE: pIC50
Answer as the number alone; pIC50 is minus log10 of concentration in mol/L.

Completed entries (count: 5):
[
  {
    "STRUCTURE SMILES": "Cc1cccc(C)c1OCCCNCc1ccccc1F",
    "pIC50": 5.96
  },
  {
    "STRUCTURE SMILES": "COc1cccc(CNCCCOc2c(C)cccc2C)c1",
    "pIC50": 5.74
  },
  {
    "STRUCTURE SMILES": "Cc1cccc(C)c1OCCCNCc1ccccc1-c1ccccc1",
    "pIC50": 5.89
  },
  {
    "STRUCTURE SMILES": "Cc1cccc(C)c1OCCCNCc1ccc(S(N)(=O)=O)cc1",
    "pIC50": 5.07
  },
  {
    "STRUCTURE SMILES": "COc1ccccc1CNCCCOc1c(C)cccc1C",
    "pIC50": 6.10
  }
]

Sure, the documented pIC50 for Cc1cccc(C)c1OCCCNCc1ccccc1 is 5.70

Sure, the documented pIC50 for Cc1cccc(C)c1OCCCNCc1ccc(O)cc1 is 5.66

Sure, the documented pIC50 for Cc1cccc(C)c1OCCCNCc1ccccn1 is 5.70

Sure, the documented pIC50 for Cc1cccc(C)c1OCCCNCc1cccc(-c2ccccc2F)c1 is 5.10

Sure, the documented pIC50 for Cc1cccc(C)c1OCCCNCc1ccc(C(F)(F)F)cc1 is 5.64

Sure, the documented pIC50 for Cc1cccc(C)c1OCCCNCc1cccnc1 is 5.33
